Tested on: G-clamp-N3 (biotin conjugate)
Assay: pull-down binding Z-score (relative to library population); higher = stronger binding
Conditions: RNA library: Library-1 (pre-miRNA loops + repeats)
Record t whenever pull-down binding Z-score is at -0.5 or higher; record f when lower.

{"SEQUENCE CHAIN": "AGGCUGGUCUCAAACUCCU [hsa-mir-5096]", "ASSIGNED CATEGORY": "f"}
{"SEQUENCE CHAIN": "AGGGGUCAUAUCUCUUCUCAGGGAAAGCAGGAGCCCUUCAGCAGGGUCAGGGCCCCU [hsa-mir-6891]", "ASSIGNED CATEGORY": "t"}
{"SEQUENCE CHAIN": "GGGAGGUAUGAUAUCGUGGUUCCU [hsa-mir-3689e]", "ASSIGNED CATEGORY": "t"}
{"SEQUENCE CHAIN": "CGCUGCCUGGAAUUAACCCCGCUGUG [hsa-mir-636]", "ASSIGNED CATEGORY": "f"}
{"SEQUENCE CHAIN": "CCCGAGCUGGGCAGCAUGAAGGGCCUCGGG [hsa-mir-486-2]", "ASSIGNED CATEGORY": "t"}
{"SEQUENCE CHAIN": "UUGAGCAUCUUCUGGGCAGCUGA [hsa-mir-7854]", "ASSIGNED CATEGORY": "f"}
{"SEQUENCE CHAIN": "CCUGCCUCAGAACUACUGAACAGAGUCACUGGGUGUGGA [hsa-mir-1289-2]", "ASSIGNED CATEGORY": "t"}
{"SEQUENCE CHAIN": "AAGACACUAUCUUACAACAACAGGGCUCUU [hsa-mir-550b-1]", "ASSIGNED CATEGORY": "t"}
{"SEQUENCE CHAIN": "UGCCUCUCGGGGU [hsa-mir-6073]", "ASSIGNED CATEGORY": "f"}
{"SEQUENCE CHAIN": "AGUGAGCUGAGAUCACGCAACU [hsa-mir-1273f]", "ASSIGNED CATEGORY": "t"}
{"SEQUENCE CHAIN": "UUGGUGUGUAUUGCCUUGUCAA [hsa-mir-1179]", "ASSIGNED CATEGORY": "f"}
